Answer each item with its documented EC50.
Tested on: HCV genotype 1a (HCV-1a) replicon cells
Assay: HCV genotype 1a replicon luciferase assay (EC50)
Type: cell-based, hepatitis C virus genotype 1a (H77 clone)
Details: 3 days, luciferase (Bright-Glo)

{"Compound": "COC(=O)N[C@H](C(=O)N1CCC[C@H]1c1ncc(-c2ccc(-c3ccc(-c4[nH]c([C@@H]5CCCN5C(=O)[C@@H](NC(=O)OC)C(C)C)c5c4OCC5)cc3)cc2)[nH]1)C(C)C [AG_122_A]", "EC50": "1 to 10 nM"}
{"Compound": "COC(=O)N[C@H](C(=O)N1CCC[C@H]1c1ncc(-c2ccc(-c3ccc(-c4cnc(C5C6CCC(C6)[C@@H]5C(=O)N[C@H](c5cccnc5)C(C)C)[nH]4)cc3)cc2)[nH]1)[C@@H](C)OC (stereo partly shown) [AA_271_A]", "EC50": "0.101 to 1 nM"}

Provide EC50 for all items below, preserving their order.
1. COC(=O)N[C@H](C(=O)N1CCCC1c1ccc(-c2ccc(-c3ccc(-c4cnc(C5CCCN5C(=O)[C@@H](NC(=O)OCCF)C(C)C)[nH]4)cc3)cc2)[nH]1)C(C)C (stereo partly shown) [AG_062]
2. COC(=O)N[C@H](C(=O)N1CCC[C@H]1c1ncc(-c2ccc(-c3ccc(-c4cnc([C@H]5C6CCC(C6)[C@@H]5C(=O)NC(C)c5cccnc5)[nH]4)cc3)cc2)[nH]1)C(C)C (single isomer, unassigned) [AA_204_C]

A)
1: 10 to 100 nM; 2: 1 to 10 nM

Provide EC50 for all items below, preserving their order.
1. COC(=O)N[C@H](C(=O)N1CCC[C@H]1c1ncc(-c2ccc(-c3ccc(-c4cnc(C5C6CCC(C6)[C@@H]5C(=O)NC(C)c5cnccn5)[nH]4)cc3)cc2)[nH]1)[C@@H](C)OC (single isomer, unassigned) [AA_281_A]
2. COC(=O)N[C@H](C(=O)N1CCCC1c1ccc(-c2ccc(-c3ccc(-c4cnc([C@@H]5CCCN5C(=O)[C@@H](NC(=O)OC)[C@@H](C)OC)[nH]4)cc3)cc2)[nH]1)[C@@H](C)OC (single isomer, unassigned) [AG_072_B]
3. COC(=O)N[C@H](C(=O)N1CCC[C@H]1c1ncc(-c2ccc(-c3ccc(-c4cnc(C5C6CCC(C6)[C@H]5C(=O)N[C@H](c5cccnc5)C(C)C)[nH]4)cc3)cc2)[nH]1)[C@@H](C)OC (stereo partly shown) [AA_271_B]

A)
["0.101 to 1 nM", "1 to 10 nM", "10 to 100 nM"]

---

Answer each item with its documented CC50 at 3 days.
Test: Cell Titer-fluor cell activity assay in HCV-1b replicon cells (CC50)
Format: cell-based

{"Molecule": "COC(=O)N[C@H](C(=O)N1CCC[C@H]1c1ncc(-c2ccc(-c3ccc(-c4cnc([C@@H]5[C@H]6CC[C@H](C6)[C@H]5C(=O)N[C@@H](CO)c5cccnc5)[nH]4)cc3)cc2)[nH]1)C(C)C [AA_243_ENDOA2_A]", "Measured": "> 1 nM"}

Provide CC50 at 3 days for all items below, preserving their order.
1. COC(=O)N[C@H](C(=O)N1CCC[C@H]1c1ncc(-c2ccc(-c3ccc(-c4cnc([C@@H]5C6CCC(C6)[C@H]5C(=O)NCc5cccnc5F)[nH]4)cc3)cc2)[nH]1)C(C)C (stereo partly drawn)
2. COC(=O)N[C@H](C(=O)N1CCC[C@H]1c1ncc(-c2ccc3c(c2)[C@@](C)(O)c2cc(-c4cnc(C5C6CCC(C6)[C@H]5C(=O)NCc5cccnc5)[nH]4)ccc2-3)[nH]1)C(C)C (stereo partly drawn)

A)
["> 1 nM", "> 1 nM"]

---

Assay: Cell Titer-fluor cell activity assay in HCV-1b replicon cells (CC50)
Type: cell-based
Method: The EC50 and CC50 values of anti-HCV compounds were determined by HCV genotype 1a (HCV-1a) and 1B (HCV-1b) stable transfer replication (replicon) cells. The source of genotype 1a replicon is H77 clones containing K1691R, K2040R and S2204I adaptive mutations. […] 3) suspending cells in each T150 culture flask with 10-15 mL culture medium, absorbing 0.1 mL liquid and diluting 2 times by trypan blue solution as counted. […]
Answer each item with its documented CC50 at 3 days.

{"Compound": "COC(=O)N[C@H](C(=O)N1C[C@@H](OC)C[C@H]1c1ncc(-c2ccc(-c3ccc(-c4cnc([C@@H]5C6CCC(C6)[C@H]5C(=O)NCc5cccnc5)[nH]4)cc3)cc2)[nH]1)C(C)C (stereo partly drawn) [AA_230_A]", "Measured": "> 1 nM"}

Provide CC50 at 3 days for all items below, preserving their order.
1. COC(=O)N[C@H](C(=O)N1CCC[C@H]1c1ncc(-c2ccc(-c3ccc(-c4cc(Cl)c([C@@H]5CCCN5C(=O)[C@@H](NC(=O)OC)[C@@H](C)OC)[nH]4)cc3)cc2)[nH]1)[C@@H](C)OC [AG_094]
2. COC(=O)N[C@H](C(=O)N1CCC[C@H]1c1ncc(-c2ccc(-c3ccc(-c4cnc(C5=C(C(=O)N(NC(=O)OC)C(C)C)CCCC5)[nH]4)cc3)cc2)[nH]1)C(C)C [AA_014]

A)
> 1 nM
> 100 nM

---

Assay: Cell Titer-fluor cell activity assay in HCV-1b replicon cells (CC50)
Assay type: cell-based
Reported endpoint: CC50 at 3 days

Before answering, review these 5 worked examples.
{"Compound": "COC(=O)N[C@H](C(=O)N1CCC[C@H]1c1ncc(-c2ccc(-c3ccc(-c4cnc([C@H]5C6CCC(C6)[C@@H]5C(=O)NCc5nccs5)[nH]4)cc3)cc2)[nH]1)C(C)C (stereo partly shown)", "Reported endpoint": "CC50 at 3 days", "Measured": "> 1 nM"}
{"Compound": "COC(=O)N[C@H](C(=O)N1CCC[C@H]1c1ccc(-c2ccc(-c3ccc(-c4cnc([C@@H]5CC6(CN5C(=O)[C@H](NC(=O)OC)C(C)C)OCC(C)(C)CO6)[nH]4)cc3)cc2)[nH]1)C(C)C", "Reported endpoint": "CC50 at 3 days", "Measured": "> 5 nM"}
{"Compound": "COC(=O)N[C@H](C(=O)N1CCC[C@H]1c1ncc(-c2ccc(-c3ccc(-c4cnc([C@H]5CCCC[C@@H]5C(=O)NCc5cccnc5)[nH]4)cc3)cc2)[nH]1)C(C)C", "Reported endpoint": "CC50 at 3 days", "Measured": "> 10 nM"}
{"Compound": "COC(=O)N[C@H](C(=O)N1CCC[C@H]1c1ncc(-c2ccc(-c3ccc(-c4ccc([C@H]5CCCN5C(=O)N(NC(=O)OC)C(C)C)[nH]4)cc3)cc2)[nH]1)C(C)C", "Reported endpoint": "CC50 at 3 days", "Measured": "> 1 nM"}
{"Compound": "COC(=O)N[C@H](C(=O)N1CCCC1c1ncc(-c2ccc(-c3ccc(-c4cnc([C@H]5C6CCC(C6)C5C(=O)NCc5cccnc5)[nH]4)cc3)c(F)c2)[nH]1)[C@@H](C)OC (stereo partly shown)", "Reported endpoint": "CC50 at 3 days", "Measured": "> 1 nM"}

Provide CC50 at 3 days for all items below, preserving their order.
1. COC(=O)N[C@H](C(=O)N1CCC[C@H]1c1ncc(-c2ccc(-c3ccc(-c4cnc([C@@H]5C6CCC(C6)[C@H]5C(=O)NC(CO)c5ccccn5)[nH]4)cc3)cc2)[nH]1)C(C)C (stereo partly shown)
2. COC(=O)N[C@H](C(=O)N1CCC[C@H]1c1ncc(-c2ccc(-c3ccc(-c4cnc([C@H]5C6CCC(C6)[C@@H]5C(=O)NCc5cccnc5OC)[nH]4)cc3)cc2)[nH]1)C(C)C (stereo partly shown)

A)
["> 1 nM", "> 1 nM"]

---

Answer each item with its documented CC50 at 3 days.
Test: Cell Titer-fluor cell activity assay in HCV-1b replicon cells (CC50)
Assay type: cell-based

{"Molecule": "COC(=O)N[C@H](C(=O)N1CCCC1c1ncc(-c2ccc(-c3ccc(-c4cnc([C@@H]5C6CCC(C6)C5C(=O)NCc5cccnc5)[nH]4)cc3)c(F)c2)[nH]1)[C@@H](C)OC (stereo partly shown) [AA_280_A]", "Measured": "> 1 nM"}
{"Molecule": "COC(=O)N[C@H](C(=O)N1CCC[C@H]1c1[nH]c(-c2ccc(-c3ccc(-c4[nH]c([C@@H]5CCCN5C(=O)[C@@H](NC(=O)OC)[C@@H](C)OC)c5c4COC5)cc3)cc2)c2c1COC2)[C@@H](C)OC [AG_088_A]", "Measured": "> 1 nM"}
{"Molecule": "COC(=O)N[C@H](C(=O)N1CCC[C@H]1c1ncc(-c2ccc(-c3ccc(-c4cnc([C@H]5C6CCC(C6)[C@@H]5C(=O)NC(CO)c5ccccn5)[nH]4)cc3)cc2)[nH]1)C(C)C (stereo partly shown) [AA_243_A]", "Measured": "> 1 nM"}
{"Molecule": "COC(=O)N[C@H](C(=O)N1CCC[C@H]1c1ncc(-c2ccc(-c3ccc(-c4cnc([C@H]5C6CCC(C6)[C@@H]5C(=O)NC(C)c5cccnc5)[nH]4)cc3)cc2)[nH]1)C(C)C (single isomer, unassigned) [AA_204_A]", "Measured": "> 1 nM"}
{"Molecule": "COC(=O)N[C@H](C(=O)N1CCC[C@H]1c1ncc(-c2ccc(-c3ccc(-c4cnc(C5C6CCC(C6)[C@@H]5C(=O)NCc5cccnc5C5CC5)[nH]4)cc3)cc2)[nH]1)[C@@H](C)OC (stereo partly shown) [AA_256_A]", "Measured": "> 1 nM"}
{"Molecule": "COC(=O)N[C@H](C(=O)N1CCC[C@H]1c1ncc(-c2ccc(-c3ccc(-c4cnc(C5CCCC[C@@H]5C(=O)N(NC(=O)OC)C(C)C)[nH]4)cc3C(F)(F)F)cc2)[nH]1)C(C)C (stereo partly shown) [AA_127]", "Measured": "> 10 nM"}

Provide CC50 at 3 days for all items below, preserving their order.
1. O=C(NCc1cccnc1)[C@H]1C2CCC(C2)C1c1ncc(-c2ccc(-c3ccc(-c4cnc([C@@H]5C6CCC(C6)[C@H]5C(=O)NCc5cccnc5)[nH]4)cc3)cc2)[nH]1 (stereo partly shown) [AA_180]
2. COC(=O)N[C@H](C(=O)N1CCCC1c1[nH]c(-c2ccc(-c3ccc(-c4cnc([C@@H]5CCCN5C(=O)[C@@H](NC(=O)OC)C(C)C)[nH]4)cc3)cc2)c2c1CCCC2)C(C)C (stereo partly shown) [AG_015]
3. COC(=O)N[C@H](C(=O)N1CCC[C@H]1c1ncc(-c2ccc(-c3ccc(-c4cnc(C5C6CCC(C6)[C@H]5C(=O)NCc5cccnc5C(C)C)[nH]4)cc3)cc2)[nH]1)[C@@H](C)OC (stereo partly shown) [AA_245_A]
4. COC(=O)N[C@H](C(=O)N1CCC[C@H]1c1ncc(-c2ccc(-c3ccc(-c4cnc([C@@H]5[C@H]6CC[C@H](C6)[C@H]5C(=O)N[C@H](c5cccnc5)C(C)C)[nH]4)cc3)cc2)[nH]1)C(C)C [AA_233_ENDOA2_A]

A)
1: > 10 nM; 2: > 10 nM; 3: > 1 nM; 4: > 1 nM
